system: PfAP2-HC AP2 domain (GST-tagged); assay: gcPBM binding intensity (ln(normalized median fluorescence intensity)); higher = stronger DNA binding
The full ranking holds about 25,000 sequences; the median of “ln(normalized median fluorescence intensity)” is about 9.7, and the highest 2% start at about 11. The sample holds the highest values, similar sequences and a random draw of the others, so the mix is not that of the screen.
Would you mind telling me the reported gcPBM binding intensity (ln) of each entry?

Solved entries (count: 2):
>  <sequenceChain>
AATATATGGTTTCATGATATAAAATTCAATTTAATG [GTGCAC_negctrl_site610]

>  <gcPBM binding intensity (ln)>
9.51

$$$$
>  <sequenceChain>
AAAAAAAAAAAGAAGGAAACATTTGACCAAAAATAT [GTGCAC_negctrl_site404]

>  <gcPBM binding intensity (ln)>
9.58

$$$$

Batch: gcPBM binding intensity (ln) for all items listed.
1. CATACATACAGACACACACACATATTTATATTTATA [CACACA_site6172]
2. TATATTAATAGACACACACACATATTTATATTTATA [CACACA_site6859]

Response:
11.3
11.1

* * *

tested on: PfAP2-HC AP2 domain (GST-tagged); experiment: gcPBM binding intensity (ln(normalized median fluorescence intensity)); higher = stronger DNA binding
In all, about 25,000 sequences were measured (“ln(normalized median fluorescence intensity)”: median about 9.7, highest 2% from about 11 on). The entries come from a sample that favours the highest values as a whole.
metricName: gcPBM binding intensity (ln)
One number for each entry.

>  <sequenceChain>
GAAAGAATAAAATTTACACACATATATAAATACATA [CACACA_site5273]

>  <experimentalSystem>
PfAP2-HC AP2 domain (GST-tagged)

>  <gcPBM binding intensity (ln)>
9.87

$$$$

Quick batch: gcPBM binding intensity (ln) for everything below.
1. ATTTATTTTTTACATTGTACATATTTATTCCTTTTA [XGTACX_site8028]
2. TTATACTGTATAGTCGCACACAAAAATATAAAATAT [CACACA_site3869]
3. TGATTATACGCACGCGCACACACAACCAAAAAAAAA [CACACA_site3537]
4. TTATATTATAGACACACACACAAAAAAAAAAAAAAA [CACACA_site3816]

Response:
9.95
9.98
10.2
10.1

Request: What gcPBM binding intensity (ln) value was documented for this sequence, AAAAAGAAAAAACTTACACACATATATACCCCCATG [CACACA_site4463] ?
Response: 10.2

* * *

Task for the reader: assign each of the following sequences its reported gcPBM binding intensity (ln).
tested on: PfAP2-HC AP2 domain (GST-tagged); assay: gcPBM binding intensity (ln(normalized median fluorescence intensity)); higher = stronger DNA binding
Whole data set: some 25,000 sequences, median “ln(normalized median fluorescence intensity)” near 9.7, cut for the highest 2% near 11. The list comes from a sample in which the highest values are over-represented; it also holds close analogues and randomly drawn sequences.
Give bare numbers.

>  <sequenceChain>
TCAAAGCACACATACACACACATATAGATTTATATA [CACACA_site6272]

>  <gcPBM binding intensity (ln)>
10.2

$$$$

List reported gcPBM binding intensity (ln) for each of these sequences:
1. CATACATACATACATACACACATACATATGTATTTA [CACACA_site5384]
2. TATCATTTGGTCTTTTACTTTTTCTGTTTTTTTTTT [CACACA_negctrl_site976]
3. GTGTAATTTATTGTGTTGCACTTTTTTTTTTTTTTT [GTGCAC_site9644]

Response:
1. 9.99
2. 9.91
3. 9.84

For each of the items listed, what is its gcPBM binding intensity (ln)?
1. AATAAATAAAAATGCACACAGTTAACATGTTGAATT [CACACA_site4795]
2. ACAGTATATTAAAAAATACACACGTATTATATCTAC [CACACA_site2640]

Response:
1: 10.2; 2: 9.83

* * *

test system: PfAP2-HC AP2 domain (GST-tagged); test: gcPBM binding intensity (ln(normalized median fluorescence intensity)); higher = stronger DNA binding
Whole data set: some 25,000 sequences, median “ln(normalized median fluorescence intensity)” near 9.7, cut for the highest 2% near 11. Shown is part of a subset that was picked to be rich in the highest values.
metricName: gcPBM binding intensity (ln)
Give bare numbers.

Record gcPBM binding intensity (ln) for all entries; do not skip any.
1. CGCACTAAAAAACACACACACACACCCATATATATA [CACACA_site4152]
2. AGCATTTTAAAAGAAAAAAAAAAAAAAAAAAAAATA [GTGCAC_negctrl_site723]
3. AATAAAAAAAAAAAAAAAAAAAAAAAGACACTAAAA [CACACA_negctrl_site1075]
4. TATATATATATATGTAGTACTCAATATTGTAGATTA [XGTACX_site3856]
5. ATTAGTATTAGATGATGTACATTTATATTGAAATAT [XGTACX_site8537]

Response:
11
9.17
9.53
9.64
9.63

Please give gcPBM binding intensity (ln) for each item listed below.
1. AATGTTTAATATAACGCATGCCTTAATATAGAATGC [TGCATGCA_site463]
2. ATAGAAATATATATATGTACATATAGATAAATCTAT [XGTACX_site7833]
3. TACGTAAAAATAATACGTACATATATTTATAGAAAA [XGTACX_site4959]

Response:
1. 9.59
2. 9.75
3. 9.71

* * *

tested on: PfAP2-HC AP2 domain (GST-tagged); assay: gcPBM binding intensity (ln(normalized median fluorescence intensity)); higher = stronger DNA binding
Over roughly 25,000 sequences, “ln(normalized median fluorescence intensity)” has its median near 9.7; the highest 2% begin near 11. The sample as a whole holds a higher share of the highest values than the screen did.
Assign class by gcPBM binding intensity (ln): not lower than 10 means yes; lower than 10 means no.

>  <sequenceChain>
ATAAATAAAGGACACACACACACACTAGAAAAAAAA [CACACA_site5450]

>  <assignedClass>
yes

$$$$
>  <sequenceChain>
AACACGCGCAGACACACACACACACCCACATATATA [CACACA_site2205]

>  <assignedClass>
yes

$$$$
>  <sequenceChain>
AAAAAAAAAAAAAAAACACACACAACACCCATACCT [CACACA_site9208]

>  <assignedClass>
yes

$$$$
>  <sequenceChain>
AAAACACGCGGACACACACACACACCCACCCATATA [CACACA_site8688]

>  <assignedClass>
yes

$$$$
>  <sequenceChain>
AAAAAAAAAAAAAACACACACACACCCATACAAAAT [CACACA_site1446]

>  <assignedClass>
yes

$$$$

Request: Is gcPBM binding intensity (ln) at least 10? Consider AATAACCACGGACACACACACATATATATATATATA [CACACA_site5873]
Response: yes

Request: Record ATATCTTATGTTATCACACACACACGCACAAAACAG [CACACA_site6800] ; criterion: gcPBM binding intensity (ln) no lower than 10. Met?
Response: yes

Request: Please tell me: is the sequence AAGAAATATTTATACACACACACAAACATATAAATA [CACACA_site6981] at or over 10 in terms of gcPBM binding intensity (ln)?
Response: yes

* * *

tested on: PfAP2-HC AP2 domain (GST-tagged); test: gcPBM binding intensity (ln(normalized median fluorescence intensity)); higher = stronger DNA binding
Whole data set: some 25,000 sequences, median “ln(normalized median fluorescence intensity)” near 9.7, cut for the highest 2% near 11. Shown is part of a subset that was picked to be rich in the highest values.
Would you kindly list gcPBM binding intensity (ln) for each of these sequences?

Answered examples (3):
>  <sequenceChain>
CAAAAGGATAGGCACACACACACACCCATATATATA [CACACA_site2199]

>  <metricName>
gcPBM binding intensity (ln)

>  <value>
11.1

$$$$
>  <sequenceChain>
AAAAAGAAAAAACTTACACACATATATACAGACATG [CACACA_site550]

>  <metricName>
gcPBM binding intensity (ln)

>  <value>
10

$$$$
>  <sequenceChain>
AACATACATAAACACACACACACACCCACAGAGACA [CACACA_site4430]

>  <metricName>
gcPBM binding intensity (ln)

>  <value>
11

$$$$

// input: 2 sequences below; output: gcPBM binding intensity (ln) for each
1. AAATAGCCAAAAATCATGCACACCTAAAAAAAAAAA [CACACA_site2572]
2. TTAATAACAAAATAAACACACATATATAAATACACA [CACACA_site6849]

Response:
[9.77, 10.5]

Could you tell me gcPBM binding intensity (ln) for each of these sequences? They are listed below.
1. AAATTGTCAAAACACGCACACACATATACATAATAA [CACACA_site1743]
2. TATACATATATATACACACACACATATATATATATA [CACACA_site1299]
3. TGGTAATACCCATACACACACACATACCCATATATA [CACACA_site5509]
4. TTTTAAGAAAAAAAATGTACACATGAAAATAGTGAA [XGTACX_site5898]
5. TACATACATACATACACACACACATATATATACATA [CACACA_site853]

Response:
1: 10.9; 2: 10.1; 3: 10.3; 4: 9.5; 5: 11

For every listed record, write down its gcPBM binding intensity (ln).
1. CATACATACAAACACACACACACACCGATATATATA [CACACA_site8952]
2. ATATATTTATATATTACACACAATATTGTAGACATA [CACACA_site4669]
3. TATATTTCAGGGGGGAGTACAAATTTTTTTATATAA [XGTACX_site1600]

Response:
1. 10.7
2. 9.74
3. 10

Request: Provide value of gcPBM binding intensity (ln) for this record tested with PfAP2-HC AP2 domain (GST-tagged): AACATACATAAACACACACACACACCCACACCCACA [CACACA_site8058]
Response: 10.8
